# Test System: anti-H3K4me3 antibody ab8580
# Assay Protocol: peptide microarray binding signal (635 nm), min-max normalized on array (fraction of array maximum); higher = stronger binding
# Condition Info: peptide region: Unmod H3 variant; binder concentration: 1:2,000 dilution
Measured Parameter: peptide microarray binding signal
Number, no unit, nothing else.

Binder	Measured
ALQEASEAYLVGL [Unmod H3 variant A L Q E A S E A Y L V G L]	0.000472
ATKAARKSAPATG [Unmod H3 variant A T K A A R K S A P A T G]	0.00119
ALQEACEAYLVGL [Unmod H3 variant A L Q E A C E A Y L V G L]	0.000434

Report peptide microarray binding signal for TGGKAPRKQLATK [Unmod H3 variant T G G K A P R K Q L A T K] please. 0.00126

Report peptide microarray binding signal for QDFKTDLRFQSSA [Unmod H3 variant Q D F K T D L R F Q S S A] please. 0.00276

Report peptide microarray binding signal for VREIAQDFKTDLR [Unmod H3 variant V R E I A Q D F K T D L R] please. 0.00247

Report peptide microarray binding signal for TARKSTGGKAPRK [Unmod H3 variant T A R K S T G G K A P R K] please. 0.001

Report peptide microarray binding signal for RKSAPATGGVKKP [Unmod H3 variant R K S A P A T G G V K K P] please. 0.000831

Report peptide microarray binding signal for ARTKQTARKSTGG [Unmod H3 variant A R T K Q T A R K S T G G] please. 0.0014

Report peptide microarray binding signal for ATKAARKSAPSTG [Unmod H3 variant A T K A A R K S A P S T G] please. 0.00109
